tested on: OVCAR-3 ovarian; test: NCI tumour cell line growth inhibition, 48 h
readout_kind: GI50

CSc1ccc(C(=O)/C=C/c2ccc(Cl)cc2Cl)cc1 = 21900 nM
O=C(Oc1c(Cl)cc(Cl)cc1Cl)c1ccccc1Nc1ccnc(C(F)(F)F)c1 = 4300 nM

The recorded GI50 for "COc1cc(C(=O)n2nc(N)c3c(C)cc(C)nc32)cc(OC)c1OC" is > 88900 nM

Value of GI50 reported for the molecule "N#Cc1c(N)nc(N2CCOCC2)c(C#N)c1-c1c(Cl)cccc1Cl" is 2400 nM

Note to self: GI50 recorded for "Fc1ccc(Nc2nc(Nc3ccc(-c4nc5ccccc5[nH]4)cc3)c3cn[nH]c3n2)cc1" was 1940 nM

Reported GI50 ( "Cc1cc(N2CCOCC2)nc(NCc2cc(Nc3ccnc4cc(Cl)ccc34)ccc2F)n1" ) = 1720 nM

Cited source: PubChem BioAssay (NCI)
